Target: UniProt:P50281
pKi: −log10 of the molar value.
recorded.endpoint: pKi

structure.notation	endpoint.value
C[C@@](CCc1ccc(-c2ccccc2)cc1)(C(=O)NO)S(C)(=O)=O	< 5.00

---

Target: Matrix metalloproteinase-15 (Homo sapiens)
Sequence (P51511 whole entry): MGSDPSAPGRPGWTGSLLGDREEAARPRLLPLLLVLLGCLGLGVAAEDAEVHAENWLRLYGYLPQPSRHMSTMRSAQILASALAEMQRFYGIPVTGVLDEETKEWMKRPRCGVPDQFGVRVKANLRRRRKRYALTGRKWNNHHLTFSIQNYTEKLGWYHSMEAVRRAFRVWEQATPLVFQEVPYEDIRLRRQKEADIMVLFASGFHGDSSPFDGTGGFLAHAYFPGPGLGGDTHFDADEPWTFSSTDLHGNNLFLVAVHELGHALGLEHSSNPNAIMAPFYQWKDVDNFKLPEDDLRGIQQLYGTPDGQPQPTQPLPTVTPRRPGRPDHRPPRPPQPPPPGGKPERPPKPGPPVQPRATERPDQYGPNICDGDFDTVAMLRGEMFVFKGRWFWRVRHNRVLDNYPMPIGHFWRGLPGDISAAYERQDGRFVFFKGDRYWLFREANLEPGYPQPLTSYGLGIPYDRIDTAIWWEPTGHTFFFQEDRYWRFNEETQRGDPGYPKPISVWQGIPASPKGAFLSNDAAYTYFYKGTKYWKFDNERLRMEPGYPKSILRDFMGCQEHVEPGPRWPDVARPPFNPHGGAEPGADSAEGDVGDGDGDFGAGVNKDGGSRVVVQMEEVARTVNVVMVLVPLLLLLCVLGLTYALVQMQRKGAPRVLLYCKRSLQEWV

structure.notation	Ki
C[C@@](CCc1ccc(-c2ccccc2)cc1)(C(=O)NO)S(C)(=O)=O	> 10 µM

---

Biological target: UDP-3-O-acyl-N-acetylglucosamine deacetylase (Pseudomonas aeruginosa (strain ATCC 15692 / PAO1 / 1C / PRS 101 / LMG12228))
Sequence (P47205 whole entry): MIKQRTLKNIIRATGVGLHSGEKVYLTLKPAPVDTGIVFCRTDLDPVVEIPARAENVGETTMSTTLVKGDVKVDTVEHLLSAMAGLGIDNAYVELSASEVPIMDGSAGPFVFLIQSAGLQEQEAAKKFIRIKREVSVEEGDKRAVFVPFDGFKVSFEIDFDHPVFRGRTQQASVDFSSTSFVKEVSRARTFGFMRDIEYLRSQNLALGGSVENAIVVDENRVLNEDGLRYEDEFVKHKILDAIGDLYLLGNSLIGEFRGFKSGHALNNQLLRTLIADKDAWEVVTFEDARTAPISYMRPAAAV
Experiment: Inhibition of Pseudomonas aeruginosa LpxC using UDP-3-O-(R-hydroxydecanoyl)-N-acetylglucosamine incubated for 30 mins prior to substrate addition measured after 60 mins by mass spectrophotometry
recorded.endpoint: IC50 (nM)

compound	measurement.units	cmp	endpoint.value
CS(=O)(=O)C(CCc1ccc(-c2ccccc2)cc1)C(=O)NO (racemic)	nM	=	13.8
CC(CCc1ccc(OCc2ccncc2)cc1)(C(=O)NO)S(C)(=O)=O (racemic)	nM	=	21.6
C[C@@](CCc1ccc(-c2ccc(CN)cc2)cc1)(C(=O)NO)S(C)(=O)=O	nM	=	12.9
C[C@@](CCc1ccc(-c2ccccc2F)cc1)(C(=O)NO)S(C)(=O)=O	nM	=	1.36
CC(CCc1ccc(-c2ccc(OCCCN)cc2)cc1)(C(=O)NO)S(C)(=O)=O (racemic)	nM	=	12.7
C[C@@](CCc1ccc(-c2ccc3c(c2)OCO3)cc1)(C(=O)NO)S(C)(=O)=O	nM	=	1.2
C[C@@](CCc1ccc(-c2cccnc2)cc1)(C(=O)NO)S(C)(=O)=O	nM	=	29.7
C[C@@](CCc1ccc(-c2ccccc2C(N)=O)cc1)(C(=O)NO)S(C)(=O)=O	nM	>	100
O=C(NO)C1(CCc2ccc(-c3ccccc3)cc2)CCCS1(=O)=O (racemic)	nM	>	92.5
COc1ccc(CCC(C)(C(=O)NO)S(C)(=O)=O)cc1 (racemic)	nM	>	100
C[C@@](CCc1ccc(-c2ccc(C#N)cc2)cc1)(C(=O)NO)S(C)(=O)=O	nM	=	0.64
C[C@@](CCc1ccc(-c2cccc(Cl)c2)cc1)(C(=O)NO)S(C)(=O)=O	nM	=	3.54
CC(C)c1cccc(-c2ccc(CC[C@](C)(C(=O)NO)S(C)(=O)=O)cc2)c1	nM	=	6.78
CC(CCc1ccc(-c2ccccc2)cc1)(C(=O)NO)S(=O)(=O)c1ccccc1 (racemic)	nM	>	67.9
C[C@@](CCc1ccc(-c2ccc(O)cc2)cc1)(C(=O)NO)S(C)(=O)=O	nM	=	3.68
CC(CCc1ccc(OCc2cc[n+]([O-])cc2)cc1)(C(=O)NO)S(C)(=O)=O (racemic)	nM	=	92.7
COc1ccccc1-c1ccc(CC[C@](C)(C(=O)NO)S(C)(=O)=O)cc1	nM	=	7.04
C[C@@](CCc1ccc(-c2cccc(C(N)=O)c2)cc1)(C(=O)NO)S(C)(=O)=O	nM	=	27.8
CC(CS(=O)(=O)c1ccc(-c2ccccc2)cc1)(C(=O)NO)S(C)(=O)=O (racemic)	nM	=	11.9
CC(CCc1ccc(-c2ccc(OCCCNC(=N)N)cc2)cc1)(C(=O)NO)S(C)(=O)=O (racemic)	nM	=	9.49
C[C@@](CCc1ccc(Sc2ccccc2)cc1)(C(=O)NO)S(C)(=O)=O	nM	=	30.4
